Test system: U251 CNS
Experiment: NCI-60 one-dose screen, 48 h
Settings: 10 µM unless noted
Compounds without any hit were thinned out: in the full panel of roughly 83,000, 20% have a hit. Activity calls are given as the source filed them. How the source made its calls: active means growth percent below 10; inactive means the rest.
Pick from label 1 = active, label 0 = inactive when you respond.

Example cases with answers are listed next.
INSERT INTO assay_data (molecule, qualitative_label) VALUES
  ('c1ccc2c(c1)nc(-n1ccnc1)c1nc3ccccc3n12', 'label 0'),
  ('Clc1ccc2c(NCCCN3CCN(c4nc(N5CCOCC5)nc5ccccc45)CC3)ccnc2c1', 'label 1'),
  ('CCOC(=O)c1c(C)nc2c(c1N)/C(=C/c1ccc(OC)cc1)C(=O)N2Cc1ccc(F)cc1', 'label 1'),
  ('NS(=O)(=O)c1cn(-c2ncnc3nc[nH]c23)ccc1=O', 'label 0'),
  ('COc1ccc(NC(=O)c2cccc(-c3cc(=O)c4c(O)c(OC)c(OC)cc4o3)c2)cc1', 'label 0'),
  ('CCOC(=O)C(=CNc1ccccc1[N+](=O)[O-])C(=O)OCC', 'label 0'),
  ('COc1ccc(/C(C)=C(\c2ccc(Cl)cc2)c2ccc(OCCN3CCCCCC3)cc2)cc1F', 'label 0'),
  ('Cc1cc(=O)c2cc3nc(-c4cccnc4)oc3c(Br)c2o1', 'label 0'),
  ('O[C@H]1CO[C@H]2[C@@H]1OC[C@@H]2Oc1ccc(Nc2ccnc(Nc3ccc(O[C@H]4CO[C@H]5[C@@H]4OC[C@@H]5O)c(Cl)c3)n2)cc1Cl', 'label 1'),
  ('COc1ccc(/C=C2\COc3ccc(O)cc3C2=O)cc1OC', 'label 0');

Each molecule tested received a call. Report the one for CCn1nc(C#Cc2c(C)ccc3c(Nc4ccc(Cl)cc4)nccc23)c2c(N)ncnc21 .
label 0

Which outcome was entered for the molecule CCOC(=O)C1C(=O)C=C(c2cnccn2)CC1c1ccc(OC)c(OC)c1 (centres undefined) in this test?
label 0

Tell me the assay call for CN1CCN(C(=O)[C@]23CCC(C)(C)C[C@@H]2C2=CC[C@@H]4[C@@]5(C)Cc6c([nH]c7ccccc67)C(C)(C)[C@@H]5CC[C@@]4(C)[C@]2(C)CC3)CC1 please.
label 0

State the result this test recorded for C=C(C)[C@@H]1CC[C@@]2(C(=O)O)CC[C@]3(C)C(CCC4[C@@]5(C)CCC(OS(=O)(=O)c6ccccc6)C(C)(C)C5CC[C@]43C)C12 (some centres undefined) .
label 0

Could you check what this test reported for CCCN1CCN(c2ccc3nc(-c4ccc5nc(-c6cc(OC)c(OC)c(OC)c6)[nH]c5c4)[nH]c3c2)CC1 ?
label 0

Kindly provide the recorded test outcome for the following molecule: CC(=O)OCCc1ccccc1
label 0

###

System: PC-3 prostate
Test: NCI-60 one-dose screen, 48 h
Settings: 10 µM unless noted
The panel holds about 83,000 compounds, 20% with a hit somewhere; the sample as a whole holds those more often. The source made the active and inactive calls. The calls were made as follows: active = growth percent below 10; inactive = the rest.
The categories you may choose from are y = active, n = inactive

Study these solved cases before continuing.
INSERT INTO assay_data (compound, qualitative_label) VALUES
  ('Cl.Fc1c[c-]c(-c2ccccn2)c(F)c1.[Pt].c1ccc([PH+](c2ccccc2)c2ccccc2[PH+](c2ccccc2)c2ccccc2)cc1', 'y'),
  ('O=S(=O)(NCCNc1cc(-c2c(-c3cccc(O)c3)nc3sccn23)ccn1)c1ccc(Cl)cc1', 'n'),
  ('Clc1ccc(-c2nc(NCCc3ccccc3)nc3c(NCCc4ccccc4)cnn23)cc1', 'n'),
  ('Nc1ccc(-c2cc3c(Nc4ccc(OCc5cccc(F)c5)c(Cl)c4)ncnc3s2)cc1', 'n');

Record lookup: outcome of this test for O=C1c2ccccc2C(=O)c2cc(Cn3cc[n+](Cc4ccc5ccccc5c4)c3)ccc21 ?
n

Assay outcome for CC(=O)Nc1ccc(-c2cc3c(NCc4ccc(F)cc4)ncnc3s2)cc1 : what was it?
n

Name the outcome recorded for O=C(NCCN1CCC(O)CC1)c1cc2c(o1)C(=O)c1ccccc1C2=O in the assay.
y

Give the logged outcome of this assay for the following compound: C=C(C)[C@@H]1CC[C@]2(CNCCO)CC[C@]3(C)[C@H](CC[C@@H]4[C@@]5(C)CCC(N)[C@@](C)(CO)[C@@H]5CC[C@]43C)[C@@H]12 (some centres undefined)
n

Assay outcome for CNC1(C#N)CCN(Cc2ccccc2)CC1 : what was it?
n
